tested_system: human histamine-H3 receptor (Homo sapiens)
Sequence (Q9Y5N1 whole entry): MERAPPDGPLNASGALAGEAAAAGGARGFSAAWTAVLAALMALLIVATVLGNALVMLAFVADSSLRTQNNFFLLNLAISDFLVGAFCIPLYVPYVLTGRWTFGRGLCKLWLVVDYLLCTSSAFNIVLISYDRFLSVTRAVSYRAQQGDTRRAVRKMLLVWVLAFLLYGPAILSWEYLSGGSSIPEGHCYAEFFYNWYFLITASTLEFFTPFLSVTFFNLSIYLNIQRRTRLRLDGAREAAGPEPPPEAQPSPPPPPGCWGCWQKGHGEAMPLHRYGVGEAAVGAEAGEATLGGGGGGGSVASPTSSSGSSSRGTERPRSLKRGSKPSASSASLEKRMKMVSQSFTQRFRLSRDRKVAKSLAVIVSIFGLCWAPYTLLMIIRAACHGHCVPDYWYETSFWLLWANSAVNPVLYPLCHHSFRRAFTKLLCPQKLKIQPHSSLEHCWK
assay_metric: IC50 (pM)

Some entries whose results are on file:
compound	reading
Cc1nccc2c1C(=O)O[C@]21CC[C@H](C(=O)N(C)CCN2CCCCC2)CC1 [Example 41]	510
CN(CCN1CCCCC1)C(=O)[C@H]1CC[C@@]2(CC1)OC(=O)c1c(-c3cnn(C)c3)nccc12 [Example 45]	140

A: CN(CCN1CCCC1)C(=O)[C@H]1CC[C@@]2(CC1)OC(=O)c1nc(N3CCCCC3)ccc12 [Example 17]
B: CN(CCN1CCCCC1)C(=O)[C@H]1CC[C@@]2(CC1)OC(=O)c1nc(-c3cnccn3)ccc12 [Example 54]
For the pair A and B , which entry has the numerically smaller recorded IC50? Your answer should be the label attached to the chosen record. B
(B: 70 pM, A: 1900 pM)

Numbers sourced from patent US8158791B2.
